Ref: patent US4148786A

- Test system: male rats
- TEST: rat-tail flick test of D'Amour and Smith
- Type: in vivo
- CONDITIONS USED: 5 mg/kg iv
Where a SMILES comes first, the peptide text is derived from it. Bridges are numbered along the chain shown (N, C = ends). [ ]: non-standard residue; d: D form.
The reader will find reported Comments: respiratory depression values listed item by item below.

Example entries begin here.
compound=NC(=O)[C@H]1CSSC[C@@H](NC(=O)[C@@H](N)Cc2ccc(O)cc2)C(=O)NCC(=O)N[C@@H](Cc2ccccc2)C(=O)N1 quantity_measured="Comments: respiratory depression" endpoint_value="4/4 Respiration very depressed"
compound=CN[C@@H](Cc1ccc(O)cc1)C(=O)N[C@@H]1CSSC[C@H](C(N)=O)NC(=O)[C@H](Cc2ccccc2)NC(=O)CNC1=O quantity_measured="Comments: respiratory depression" endpoint_value="3/3 respiratory depression"
compound="N=C(N)NCCC[C@H](N)C(=O)N[C@@H](Cc1ccc(O)cc1)C(=O)N[C@@H]1CSSC[C@H](C(N)=O)NC(=O)[C@H](Cc2ccccc2)NC(=O)CNC1=O [Example 5] (H-RY[dC]GF[dC]-NH2; disulfide 3-6)" quantity_measured="Comments: respiratory depression" endpoint_value="3/5 respiratory depression"
compound=CN1C(=O)CNC(=O)[C@H](NC(=O)[C@@H](N)Cc2ccc(O)cc2)CSSC[C@H](C(N)=O)NC(=O)[C@@H]1Cc1ccccc1 quantity_measured="Comments: respiratory depression" endpoint_value="3/6 respiratory depression"

Shifting focus to the compound that follows.
INPUT: Look up and report measured Comments: respiratory depression for this entry: NC(=O)[C@@H]1CSSC[C@@H](NC(=O)[C@@H](N)Cc2ccc(O)cc2)C(=O)NCC(=O)N[C@@H](Cc2ccccc2)C(=O)N1
OUTPUT: 3/6 moderate to severe respiratory
